Molecular target: GST-Nv-NF-kB (Ser allele) (Nematostella vectensis, UniProt A7UNT2 2-411)
Sequence: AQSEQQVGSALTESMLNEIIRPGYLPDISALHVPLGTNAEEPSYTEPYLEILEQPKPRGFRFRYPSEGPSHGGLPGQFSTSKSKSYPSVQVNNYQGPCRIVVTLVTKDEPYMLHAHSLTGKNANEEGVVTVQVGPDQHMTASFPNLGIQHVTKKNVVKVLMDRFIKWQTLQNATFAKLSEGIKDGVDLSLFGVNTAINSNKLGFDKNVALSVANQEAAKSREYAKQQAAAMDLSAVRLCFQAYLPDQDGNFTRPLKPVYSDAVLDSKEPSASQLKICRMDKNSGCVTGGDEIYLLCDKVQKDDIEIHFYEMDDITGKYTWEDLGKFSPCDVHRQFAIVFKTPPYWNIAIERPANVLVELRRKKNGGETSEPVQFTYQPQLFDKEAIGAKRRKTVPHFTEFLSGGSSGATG
Experiment: protein-binding microarray (PBM); PBM: ~300 nM protein, 6 mM HEPES pH 7.8, 80 mM KCl, 0.5 mM EDTA, 0.5 mM EGTA, 6% glycerol, 35 ng/ul poly-dIdC, 1% milk, 1 h, room temperature; high values mean tight binding
Conditions: dsDNA, one strand shown
Catalogue of binding signal readings, one per entry.
Measured Metric: binding signal (z-score)

{"Monomer Sequence": "CCGATTAACATCAAATTTCCCCATGATGTTAATCGGGTCTTGATTCGCTTGACGCTGCTG", "Measured Result": 10.8}
{"Monomer Sequence": "CCGATTAACATCAGGGAGGCCCCTGATGTTAATCGGGTCTTGATTCGCTTGACGCTGCTG", "Measured Result": 1.37}
{"Monomer Sequence": "CCGATTAACATCAATTATTCCCCTGATGTTAATCGGGTCTTGATTCGCTTGACGCTGCTG", "Measured Result": 9.75}
{"Monomer Sequence": "CCGATTAACATCAGAAACCCCCCTGATGTTAATCGGGTCTTGATTCGCTTGACGCTGCTG", "Measured Result": 7.63}
{"Monomer Sequence": "CCGATTAACATCACGGGAAATCCTGATGTTAATCGGGTCTTGATTCGCTTGACGCTGCTG", "Measured Result": 5.29}

----------
Target: GST-Aq-NF-kB (Amphimedon queenslandica, UniProt A9Y5G7 2-389)
Sequence: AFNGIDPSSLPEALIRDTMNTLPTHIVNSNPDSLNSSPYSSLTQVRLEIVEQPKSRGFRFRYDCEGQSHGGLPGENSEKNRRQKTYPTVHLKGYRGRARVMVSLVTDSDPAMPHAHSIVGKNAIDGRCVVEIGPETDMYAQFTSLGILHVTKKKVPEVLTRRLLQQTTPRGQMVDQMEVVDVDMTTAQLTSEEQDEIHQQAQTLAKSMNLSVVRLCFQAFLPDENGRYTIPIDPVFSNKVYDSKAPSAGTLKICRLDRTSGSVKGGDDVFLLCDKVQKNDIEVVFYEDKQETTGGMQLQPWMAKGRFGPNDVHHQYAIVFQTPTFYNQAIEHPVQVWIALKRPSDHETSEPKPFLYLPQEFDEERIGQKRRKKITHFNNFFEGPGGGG
Test: protein-binding microarray (PBM); PBM: ~300 nM protein, 6 mM HEPES pH 7.8, 80 mM KCl, 0.5 mM EDTA, 0.5 mM EGTA, 6% glycerol, 35 ng/ul poly-dIdC, 1% milk, 1 h, room temperature; high values mean tight binding
Details: dsDNA, one strand shown

{"Monomer Sequence": "CCGATTAACATCAATAAATACCCTGATGTTAATCGGGTCTTGATTCGCTTGACGCTGCTG", "binding signal": "4.69 z-score"}
{"Monomer Sequence": "CCGATTAACATCAGTAGTGGGGCTGATGTTAATCGGGTCTTGATTCGCTTGACGCTGCTG", "binding signal": "1.72 z-score"}
{"Monomer Sequence": "CCGATTAACATCAGGGTTTTCCATGATGTTAATCGGGTCTTGATTCGCTTGACGCTGCTG", "binding signal": "4.33 z-score"}
{"Monomer Sequence": "CCGATTAACATCACCGGGGATAGTGATGTTAATCGGGTCTTGATTCGCTTGACGCTGCTG", "binding signal": "1.82 z-score"}
{"Monomer Sequence": "CCGATTAACATCACAATCCCCCCTGATGTTAATCGGGTCTTGATTCGCTTGACGCTGCTG", "binding signal": "5.25 z-score"}
{"Monomer Sequence": "CCGATTAACATCACGGACTCTCCTGATGTTAATCGGGTCTTGATTCGCTTGACGCTGCTG", "binding signal": "2.26 z-score"}
{"Monomer Sequence": "CCGATTAACATCAGGCTTTCCCATGATGTTAATCGGGTCTTGATTCGCTTGACGCTGCTG", "binding signal": "2.88 z-score"}
{"Monomer Sequence": "CCGATTAACATCAGGAACACCCCTGATGTTAATCGGGTCTTGATTCGCTTGACGCTGCTG", "binding signal": "4.23 z-score"}
{"Monomer Sequence": "CCGATTAACATCAAAACGTCCCCTGATGTTAATCGGGTCTTGATTCGCTTGACGCTGCTG", "binding signal": "6.19 z-score"}

----------
Catalogue of binding signal readings, one per entry.
Target: GST-Ap-NF-kB RHD (Exaiptasia pallida (Aiptasia), UniProt A0A913YAJ5 2-422)
Sequence: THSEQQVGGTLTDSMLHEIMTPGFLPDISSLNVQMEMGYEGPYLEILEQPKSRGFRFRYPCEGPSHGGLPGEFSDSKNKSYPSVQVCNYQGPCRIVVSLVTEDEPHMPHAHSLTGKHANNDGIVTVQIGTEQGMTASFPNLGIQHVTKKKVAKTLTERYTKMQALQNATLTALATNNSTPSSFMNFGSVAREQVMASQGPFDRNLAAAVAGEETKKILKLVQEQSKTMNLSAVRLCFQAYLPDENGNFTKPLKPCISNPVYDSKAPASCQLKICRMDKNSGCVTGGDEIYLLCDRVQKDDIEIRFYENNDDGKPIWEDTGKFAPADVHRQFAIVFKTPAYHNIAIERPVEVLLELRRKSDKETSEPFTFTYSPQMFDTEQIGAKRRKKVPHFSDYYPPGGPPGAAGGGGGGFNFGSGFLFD
Assay: protein-binding microarray (PBM); PBM: ~300 nM protein, 6 mM HEPES pH 7.8, 80 mM KCl, 0.5 mM EDTA, 0.5 mM EGTA, 6% glycerol, 35 ng/ul poly-dIdC, 1% milk, 1 h, room temperature; Ap Aiptasia and Nv Nematostella (sea anemones) / Co Capsaspora / Aq Amphimedon (sponge) / Dm Drosophila / Hu human; RHD is the Rel homology domain; high values mean tight binding
Conditions: dsDNA, one strand shown
Measured Metric: binding signal (z-score)

{"Monomer Sequence": "CCGATTAACATCAAGGGGGTATCTGATGTTAATCGGGTCTTGATTCGCTTGACGCTGCTG", "Unit Of Measure": "z-score", "Measured Result": 6.66}
{"Monomer Sequence": "CCGATTAACATCAGATTTCCCACTGATGTTAATCGGGTCTTGATTCGCTTGACGCTGCTG", "Unit Of Measure": "z-score", "Measured Result": 1.83}
{"Monomer Sequence": "CCGATTAACATCAGGGTAAGTACTGATGTTAATCGGGTCTTGATTCGCTTGACGCTGCTG", "Unit Of Measure": "z-score", "Measured Result": 2.48}
{"Monomer Sequence": "CCGATTAACATCAGGGGGGTACCTGATGTTAATCGGGTCTTGATTCGCTTGACGCTGCTG", "Unit Of Measure": "z-score", "Measured Result": 5.8}
{"Monomer Sequence": "CCGATTAACATCAAATTCCCACATGATGTTAATCGGGTCTTGATTCGCTTGACGCTGCTG", "Unit Of Measure": "z-score", "Measured Result": 2}
{"Monomer Sequence": "CCGATTAACATCAGGGGGATTCATGATGTTAATCGGGTCTTGATTCGCTTGACGCTGCTG", "Unit Of Measure": "z-score", "Measured Result": 8.54}
{"Monomer Sequence": "CCGATTAACATCAAGGGAAAAAATGATGTTAATCGGGTCTTGATTCGCTTGACGCTGCTG", "Unit Of Measure": "z-score", "Measured Result": 3.77}
{"Monomer Sequence": "CCGATTAACATCAATTTCCCGTATGATGTTAATCGGGTCTTGATTCGCTTGACGCTGCTG", "Unit Of Measure": "z-score", "Measured Result": 2.46}
{"Monomer Sequence": "CCGATTAACATCAAACCCCCCCATGATGTTAATCGGGTCTTGATTCGCTTGACGCTGCTG", "Unit Of Measure": "z-score", "Measured Result": 6.35}
